# procedureSummary: in vitro
# conditions: mouse, liver microsomes, pH 7.4

compound | unitsSymbol | half-life
O=C(O)Cc1ccccc1Nc1c(Cl)cccc1Cl [Diclofenac, reference compound] | h | 1.54

----------
# measuredOn: UniProt P05177
# Sequence (P05177 1-516): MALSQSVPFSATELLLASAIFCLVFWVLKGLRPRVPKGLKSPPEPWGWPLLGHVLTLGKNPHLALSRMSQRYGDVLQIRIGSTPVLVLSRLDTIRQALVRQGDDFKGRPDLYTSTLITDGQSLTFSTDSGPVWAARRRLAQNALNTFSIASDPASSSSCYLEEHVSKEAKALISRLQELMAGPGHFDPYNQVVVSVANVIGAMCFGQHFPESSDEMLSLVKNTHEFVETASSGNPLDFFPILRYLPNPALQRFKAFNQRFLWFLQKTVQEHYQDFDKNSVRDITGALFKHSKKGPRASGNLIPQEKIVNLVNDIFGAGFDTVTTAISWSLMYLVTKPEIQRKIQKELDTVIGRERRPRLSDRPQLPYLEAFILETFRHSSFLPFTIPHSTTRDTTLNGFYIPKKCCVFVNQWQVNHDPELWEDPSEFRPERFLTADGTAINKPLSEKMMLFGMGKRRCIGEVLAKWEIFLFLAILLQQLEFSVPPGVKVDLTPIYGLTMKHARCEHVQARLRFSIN
# procedureSummary: in vitro
# Assay type: biochemical
# conditions: human, % inhibition CYP 1A2
Where a SMILES comes first, the peptide text is derived from it. [ ]: non-standard residue; d: D form. The star is where a group is joined. d(aIle) = CC[C@H](C)[C@@H](N)C(=O)O; X1 = CC[C@H](C)CCCCC(=O)*; dDab = NCC[C@@H](N)C(=O)O; Dab = NCC[C@H](N)C(=O)O
assayReadout: inhibition at 25 min, 3 µM (%)

molecule | inequalitySymbol | dataValue
CC[C@H](C)CCCCC(=O)NCC(=O)N[C@H](CCN)C(=O)NCC(=O)N[C@H](CO)C(=O)N[C@H](Cc1c[nH]c2ccccc12)C(=O)N[C@@H](CO)C(=O)N[C@@H](CCN)C(=O)N[C@H](CCN)C(=O)N[C@H](C(=O)N[C@@H](CCC(=O)O)C(=O)N[C@H](C(=O)N[C@@H](C(=O)N[C@@H](CO)C(=O)O)[C@@H](C)CC)[C@@H](C)CC)[C@@H](C)CC [Tridecaptin M, tridecaptin M] (X1-G[dDab]G[dS][dW]S[Dab][dDab]IEI[d(aIle)]S-OH) | < | 0
Cc1nc2c([nH]1)c(=O)n(C)c(=O)n2Cc1ccco1 [Furafylline, reference compound] | = | 67.7
